- system: Prostaglandin G/H synthase 1 (Ovis aries, UniProt P05979)
- Sequence (P05979 whole entry): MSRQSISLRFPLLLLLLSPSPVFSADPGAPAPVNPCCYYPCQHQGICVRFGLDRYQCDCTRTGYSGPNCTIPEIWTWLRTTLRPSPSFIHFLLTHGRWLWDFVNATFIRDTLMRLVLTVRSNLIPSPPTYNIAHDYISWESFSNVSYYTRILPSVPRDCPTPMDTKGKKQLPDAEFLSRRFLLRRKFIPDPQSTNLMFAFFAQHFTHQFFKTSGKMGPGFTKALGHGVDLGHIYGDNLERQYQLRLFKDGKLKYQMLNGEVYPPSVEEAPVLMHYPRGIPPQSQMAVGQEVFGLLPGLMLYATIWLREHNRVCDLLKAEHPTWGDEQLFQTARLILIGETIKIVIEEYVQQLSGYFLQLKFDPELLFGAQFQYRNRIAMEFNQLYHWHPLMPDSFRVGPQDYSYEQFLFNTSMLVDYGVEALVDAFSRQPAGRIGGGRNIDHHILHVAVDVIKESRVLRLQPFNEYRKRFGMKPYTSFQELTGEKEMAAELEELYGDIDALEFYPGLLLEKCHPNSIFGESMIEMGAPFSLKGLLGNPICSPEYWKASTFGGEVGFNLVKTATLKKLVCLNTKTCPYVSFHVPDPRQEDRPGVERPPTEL
- assay: Inhibition of ovine COX1 assessed as PGF2alpha production by reduction of PGH2 with stannous chloride by enzyme immunoassay
pIC50: −log10 of the molar value.
parameter: pIC50

Input line: Any idea what pIC50 was measured for Cc1c(O)cc2oc3c(c(=O)c2c1O)-c1ccccc1OC3O (stereo unspecified) [BOERAVINONE B] ?
Output line: 4.60

Input line: What value of pIC50 has been reported for the following compound? COC1Oc2ccccc2-c2c1oc1cc(O)c(C)c(O)c1c2=O (stereo unspecified) [BOERAVINONE A]
Output line: 4.48

Input line: For COc1c(O)c(C)c(O)c2c(=O)c3c(oc12)C(O)Oc1ccccc1-3 (racemic) , what is its reported pIC50?
Output line: 4.59

Input line: What does the record list as pIC50 for Cc1c(O)cc2oc3c(c(=O)c2c1O)-c1ccc(O)cc1OC3O (stereo unspecified) [BOERAVINONE E] ?
Output line: 4.62

Input line: What value of pIC50 has been recorded for this entry: COc1c(O)c(C)c(O)c2c(=O)c3c(oc12)C(OC)Oc1ccccc1-3 (racemic)
Output line: 4.48

Input line: Recorded pIC50 of O=c1c2c(oc3cc(O)cc(O)c13)C(O)Oc1cc(O)ccc1-2 (racemic) , please.
Output line: 4.66
